System: T-47D breast
Experiment: NCI tumour cell line growth inhibition, 48 h
readout_type: TGI

smiles_notation	meas_value
C/C(=C\CO)CC/C=C(\C)CNc1ccccc1	81 µM
COc1ccc(/C(COc2ccc3c(c2)oc(=O)c2cc(OC)ccc23)=N/O)cc1	> 100 µM
COC(=O)C(=Cc1ccccc1[N+](=O)[O-])C(=O)OC	11 µM

Any idea what its TGI is? The compound is CC(=O)c1c(C)cn(S(=O)(=O)NC(=O)Nc2nncs2)c1C
> 100 µM

* * *

System: ACHN renal
Assay: NCI tumour cell line growth inhibition, 48 h; in the data active means GI50 below about 0.43 µM; inactive means the rest
# valid calls are active, inactive; nothing else

Some solved entries appear below for comparison.
molecule	target_of_assay	label_class
CCOC(=O)Nc1nc2cc(OC)c(OC)c(OC)c2s1	ACHN renal	inactive
Cc1nc2ccccn2c1NC(=O)NNC(=S)Nc1ccc(Cl)cc1	ACHN renal	inactive

Record request — test call for CCSc1nc2[nH]c(=S)[nH]c(=S)c2c(-c2ccc(OC)c(OC)c2)c1C#N
inactive

Record request — test call for C=CC(=O)N1CC2(CCC(n3nc(-c4ccc(Oc5ccccc5)cc4)c4c(N)ncnc43)CC2)C1
active

Record request — test call for Nc1nonc1-c1nc2cnccc2n1C1CCCCC1
inactive

Record request — test call for O=C(Nc1ccc(OCc2nnc(-c3ccc(Cl)cc3)o2)c(F)c1)Nc1ccc(Cl)c(Cl)c1
inactive

Record request — test call for CC/C(=C(\c1ccc(Cl)cc1)c1ccc(OCCN2CCCCC2)cc1)c1ccc(O)cc1
inactive

Record request — test call for C=CCSSC1N=CNc2nc[nH]c21 (stereo not given)
inactive

Record request — test call for O=C1C=C(Nc2ccc([N+](=O)[O-])cc2)c2ccccc2C1=O
inactive

Record request — test call for COc1ccccc1N1CCN(CC(O)COc2c(Br)c(Br)c(Br)c3c2OC(C)(C)C3)CC1 (stereo not given)
inactive

* * *

Test system: LXFL 529 NSCLC
Experiment: NCI tumour cell line growth inhibition, 48 h
Let's look at some compounds and their measured TGI.

Example compounds with recorded TGI:
compound	readout_type	meas_value
COc1cc(Nc2nc3c(N)cc(C(F)(F)F)cc3nc2-c2ccccc2)cc(OC)c1OC	TGI	> 100 µM
COc1ccc2c3c([nH]c2c1CC=C(C)C)C(=O)C=C(C)C3=O	TGI	> 25 µM
COc1ccc(OC)c2c(C(=O)O)c(C(C)c3ccccc3)ccc12 (centres undefined)	TGI	> 100 µM

Okay, next one:
Any idea what its TGI is? The compound is COc1ccc(NCc2cc(OC)cc(OC)c2)cc1
> 100 µM

* * *

Let's look at some compounds and their measured TGI.
Tested on: OVCAR-4 ovarian
Test: NCI tumour cell line growth inhibition, 48 h
Where a SMILES comes first, the peptide text is derived from it. Bridges are numbered along the chain shown (N, C = ends). [ ]: non-standard residue; d: D form. The star is where a group is joined. Cya = N[CH](CS(=O)(=O)O)C(=O)O; X49 = CC(C)CCCCCCCC(O)CC(=O)*; GABA = NCCCC(=O)O

Example compounds with recorded TGI:
compound	meas_value
Cc1nc2nn[nH]n2c(=O)c1CCO	> 100 µM
CC(C)CCCCCCCC(O)CC(=O)NC(CS(=O)(=O)O)C(=O)NC(CC(C)C)C(=O)NCCCC(=O)NC(Cc1cnc[nH]1)C(=O)NC(C)C(=O)NC1C(=O)NC(C(C)O)C(=O)NC(Cc2cnc[nH]2)C(=O)NC(C)C(=O)NC(C(C)O)C(=O)OC1C (stereo not drawn) (X49-[Cya]L[GABA]HATTHAT; ester 6-C; configuration not given here)	> 25 µM
O=C1CC(c2ccccc2Cl)C2(C(=O)NC(=S)NC2=O)C(c2ccccc2Cl)C1 (stereo not drawn)	> 100 µM
CC(=O)NCCC1CN(C(=O)/C=C\I)c2ccccc21 (stereo not drawn)	39 µM
COC12COC(=O)C1C(c1ccc3c(c1)OCO3)c1cc3c(cc1O2)OCO3 (stereo not drawn)	> 100 µM
O=C(CC(=O)Nc1ccc(C(=O)O)cc1)Nc1ccc(C(=O)O)cc1	> 100 µM
C[C@]12CC[C@@H]3c4ccc(O)cc4CC[C@H]3[C@@H]1CC[C@@H]2NS(=O)(=O)c1cccc(OC(F)(F)F)c1	4.69 µM

Okay, next one:
Any idea what its TGI is? The compound is COC(=O)c1c(O)ccc2c1c1c(n2CCc2ccccc2)C(=O)c2ccccc2C1=O
20.7 µM
